I'd be grateful if you could share measured loss of binding vs wild type for these entries.
Molecular target: T1, hiR2-FL-M534-T7 (deletion of M534) (human, UniProt Q6PJF5 1-856)
T1 construct: single amino acid deletion
T1 sequence: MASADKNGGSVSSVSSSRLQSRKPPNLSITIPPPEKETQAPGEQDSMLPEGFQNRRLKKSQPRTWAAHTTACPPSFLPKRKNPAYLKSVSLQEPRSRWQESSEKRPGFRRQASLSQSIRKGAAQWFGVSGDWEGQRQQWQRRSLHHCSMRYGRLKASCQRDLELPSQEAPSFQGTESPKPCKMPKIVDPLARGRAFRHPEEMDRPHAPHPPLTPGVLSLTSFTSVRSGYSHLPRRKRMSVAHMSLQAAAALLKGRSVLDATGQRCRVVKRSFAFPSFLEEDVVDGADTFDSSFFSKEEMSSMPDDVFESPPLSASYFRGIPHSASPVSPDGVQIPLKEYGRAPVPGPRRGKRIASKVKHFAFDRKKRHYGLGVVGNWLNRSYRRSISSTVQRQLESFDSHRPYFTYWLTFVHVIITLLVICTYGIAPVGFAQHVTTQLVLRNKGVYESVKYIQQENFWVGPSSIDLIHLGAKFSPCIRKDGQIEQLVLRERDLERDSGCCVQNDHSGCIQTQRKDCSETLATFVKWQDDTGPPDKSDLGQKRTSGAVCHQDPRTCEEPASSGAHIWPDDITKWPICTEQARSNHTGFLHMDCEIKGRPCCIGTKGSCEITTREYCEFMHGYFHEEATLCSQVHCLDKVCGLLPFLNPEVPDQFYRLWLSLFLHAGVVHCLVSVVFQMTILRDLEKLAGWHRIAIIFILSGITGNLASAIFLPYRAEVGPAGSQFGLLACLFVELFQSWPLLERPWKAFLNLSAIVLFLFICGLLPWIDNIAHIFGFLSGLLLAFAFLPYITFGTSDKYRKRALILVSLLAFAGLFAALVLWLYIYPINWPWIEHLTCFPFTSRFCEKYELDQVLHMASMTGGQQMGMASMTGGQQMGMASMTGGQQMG
Test: FACS, MEF-DKO cells, 3 µg/ml

binder antibody 22 (antibody, V domains shown, mouse IgG, kappa light chain; also called clone #22; purified antibody 22) VH: QVTLKESGPGILQPSQTLSLTCSFSGFSLSTFGMGVGWIRQPSGKGLEWLAHIWWDDEKYYNSALKSRLTISKATSKNQVFLKIANVDTADTATYYCARISNYGSNYWYFNVWGTGTTVTVSS VL: QVVLTQSPALMSASPGEKVTMTCSAGSSVSYMYWYQQKPGSSPRVLIYDTSNLASGVPARFTGSGSGTSYSLTISRMEAEDAATYYCQQWNSYPLTFGAGTKLELK , loss of binding vs wild type observed: ≥ 95%

binder antibody 43 (antibody, V domains shown, mouse IgG, kappa light chain; also called clone #43; purified antibody 43) VH: QVALKESGPGILQPSQTLSLTCSFSGFSLSTFGMGVGWIRQSSGKGLEWLANIWWDDDKYYNPALKSRLTISKDASKNQAFLKIANVDTADTATYYCARIGNYGSNYWYFDVWGTGTTVTVSS VL: QIVLTQSPAIMSASPGERVTMTCSANSRISYMYWYQQKPGSSPRLLIYDTSNLASGVPVRFSGSGSGTSYSLTISRMEAEDAATYNCQQWSSYPLTFGAGTKLELK , loss of binding vs wild type observed: ≥ 95%

binder antibody 42 (antibody, V domains shown, mouse IgG, kappa light chain; also called clone #42; purified antibody 42) VH: QVTLKESGPGILQPSQTLSLTCSLSGFSLSTFGRGVGWIRQPSGKGLEWLAHIWWDDEKYYNPALKSRLTISKDTSKNQVFLRIANVDTADTATYYCARIQNYGSNYWYFDVWGTGTTVTVSS VL: LIVLTQSPAIMSASPGEKVTMTCGATSRISYMFWYQQKPGSSPRVLIYDTSNLASGVPVRFSGSGSGTSYSLTISRVEAEDVATYYCQQWNSYPLTFGAGTKLELK , loss of binding vs wild type observed: ≥ 95%
